From: paper PMC10397247

Biological target: T1, 4H895-AA
T1 chain: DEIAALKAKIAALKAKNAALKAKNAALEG
Assay: two-hybrid library CCmax;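 also: natural log of median RNA to DNA barcode read ratio; higher means stronger binding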
Conditions: mean of both orientations
Readout: interaction score

INSERT INTO results (binder, readout, value) VALUES
  ('DKNAALEAKIAALEAKIAALEAKIAALEG [4H3365-AA]', 'interaction score', -1.35),
  ('DEIAALKAEIAALEAENAALEAKNAALEG [4H535-AA]', 'interaction score', 2.1),
  ('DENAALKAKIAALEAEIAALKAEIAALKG [4H1802-AA]', 'interaction score', -1.85),
  ('DEIAALEAKIAALKAKIAALEAENAALEG [4H355-AA]', 'interaction score', -0.0681),
  ('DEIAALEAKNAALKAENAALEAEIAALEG [4H465-AA]', 'interaction score', -1.13),
  ('DKNAALKAEIAALKAEIAALEAENAALEG [4H3651-AA]', 'interaction score', 2.08),
  ('DKIAALKAENAALEAKIAALEAEIAALEG [4H2721-AA]', 'interaction score', -1.62),
  ('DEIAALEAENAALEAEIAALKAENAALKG [4H140-AA]', 'interaction score', -1.44),
  ('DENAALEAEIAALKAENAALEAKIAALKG [4H1110-AA]', 'interaction score', 0.133),
  ('DEIAALEAKNAALKAKIAALEAKIAALKG [4H486-AA]', 'interaction score', -1.84),
  ('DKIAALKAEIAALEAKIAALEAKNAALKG [4H2600-AA]', 'interaction score', -0.393),
  ('DKNAALKAEIAALKAKNAALKAEIAALEG [4H3705-AA]', 'interaction score', -1.78),
  ('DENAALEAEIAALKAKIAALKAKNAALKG [4H1136-AA]', 'interaction score', -1.31),
  ('DEIAALEAEIAALEAKNAALKAEIAALKG [4H58-AA]', 'interaction score', -0.545),
  ('DKIAALKAENAALEAKNAALKAKIAALKG [4H2750-AA]', 'interaction score', -1.79);
